# assay-system: T1, Extracellular domain of human PD1 (huPD1-ECD) (human, UniProt Q15116 25-169, biotinylated in the ligand inhibition assay (sites not given))
# T1 construct: Expressed with a hexahistidine tag or as Fc fusion; also called biotinylated PD-1
# T1 sequence (Q15116 25-169 limits assumed): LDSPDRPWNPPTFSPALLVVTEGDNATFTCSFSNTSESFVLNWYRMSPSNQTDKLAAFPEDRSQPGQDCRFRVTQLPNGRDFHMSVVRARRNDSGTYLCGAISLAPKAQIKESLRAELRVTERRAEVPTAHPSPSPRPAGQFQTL
# assay-info: MSD ligand inhibition, competitor coated cynoPDL1-ECD
The entries below are paired with their reported percentage ligand not blocked at 1 µg/ml.
Just the number in %, nothing appended.

>>> value_measured("PD1B177 (antibody, V domains shown, Tested as IgG2sigma; also called PD1H164/PH9L3) VH: QVQLVQSGAEVKKPGSSVKVSCKASGGTFSDYVISWVRQAPGQGLEWMGGIIPIYGTANYAQKFQGRVTITADESTSTAYMELSSLRSEDTAVYYCARGTLDRTGHLDYWGQGTLVTVSS VL: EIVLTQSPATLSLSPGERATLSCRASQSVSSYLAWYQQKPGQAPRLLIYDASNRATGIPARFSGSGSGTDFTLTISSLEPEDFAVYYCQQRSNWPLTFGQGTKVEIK")
7

Prompt: If you can, please state the reported percentage ligand not blocked at 1 µg/ml value of PD1B185 (antibody, human IgG2, kappa, V domains shown, IgG2sigma/kappa; VH 43, VL 55; also called PD1H3/PD1L132) VH: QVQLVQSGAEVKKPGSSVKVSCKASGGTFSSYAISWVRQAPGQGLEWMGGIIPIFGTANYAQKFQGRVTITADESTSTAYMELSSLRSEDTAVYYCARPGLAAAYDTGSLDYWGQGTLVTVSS VL: EIVLTQSPATLSLSPGERATLSCRASQSVRNYLAWYQQKPGQAPRLLIYDASDRATGIPARFSGSGSGTDFTLTISSLEPEDFAVYYCQQRWNWPLTFGQGTKVEIKR .
Completion: 8

Prompt: If you can, please state the reported percentage ligand not blocked at 1 µg/ml value of PD1B149 (antibody, human IgG2, kappa, V domains shown, IgG2sigma/kappa; VH 41, VL 50; also called PD1H24/PD1L128) VH: QVQLVQSGAEVKKPGSSVKVSCKASGGTFSSYAISWVRQAPGQGLEWMGGIIPIFGTANYAQKFQGRVTITADESTSTAYMELSSLRSEDTAVYYCARPGLAAAYDTGNLDYWGQGTLVTVSS VL: EIVLTQSPATLSLSPGERATLSCRASQSVRNYLAWYQQKPGQAPRLLIHDASNRATGIPARFSGSGSGTDFTLTISSLEPEDFAVYYCQQRNYWPLTFGQGTKVEIKR .
Completion: 7

Prompt: If you can, please state the reported percentage ligand not blocked at 1 µg/ml value of PD1B162 (antibody, human IgG2, kappa, V domains shown, IgG2sigma/kappa; VH 42, VL 52; also called PD1H131/PD1L67) VH: QVQLVQSGAEVKKPGSSVKVSCKASGGTFSSYAISWVRQAPGQGLEWMGGIIPIFDTANYAQKFQGRVTITADESTSTAYMELSSLRSEDTAVYYCARPGLAAAYDTGNLDYWGQGTLVTVSS VL: EIVLTQSPATLSLSPGERATLSCRASQSVDSYLAWYQQKPGQAPRLLIYDASNRATGIPARFSGSGSGTDFTLTISSLEPEDFAVYYCQQREYWPLTFGQGTKVEIKR .
Completion: 7

Prompt: If you can, please state the reported percentage ligand not blocked at 1 µg/ml value of PD1B187 (antibody, V domains shown, Tested as IgG2sigma; also called PD1H3/PD1L148) VH: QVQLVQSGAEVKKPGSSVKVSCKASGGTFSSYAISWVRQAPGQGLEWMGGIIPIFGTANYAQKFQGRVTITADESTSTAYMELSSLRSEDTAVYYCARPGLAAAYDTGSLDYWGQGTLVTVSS VL: EIVLTQSPATLSLSPGERATLSCRASQSVRSYLAWYQQKPGQAPRLLIYDASNRATGIPARFSGSGSGTDFTLTISSLEPEDFAVYYCQQRNYWPLTFGQGTKVEIK .
Completion: 7
